- System: NLRP3
- Test description: IL-1β secretion assay in PMA-differentiated, LPS/nigericin-stimulated THP-1 cells (384-well, ELISA read-out)
- Assay type: cell-based, human
- Test parameters: Table 4; IL-1β secretion, LPS/nigericin-stimulated THP-1 cells; read-out: IC50
Please respond with reported IC50 for every item in the list.
Give a bare numeral; the unit µM is implied.

# IC50 (compound: O=C(CN1CC2(CC2(F)F)c2c(ccc(Br)c2F)C1=O)Nc1ncc(Cl)cn1 (single isomer, unassigned) [Example 318] ) is 0.008

Lookup result for C[C@H]1C[C@]12CN(CC(=O)Nc1ncc(F)cn1)C(=O)c1ccc(Br)cc12 (single isomer, unassigned) [Example 279] ; measured IC50: 22.4

Measured IC50, O=C(CN1C[C@@]2(C[C@@H]2Cl)c2cc(Br)ccc2C1=O)Nc1ncc(F)cn1 (single isomer, unassigned) [Example 284] : 0.05

// O=C(CN1CC(C(F)(F)F)c2cc(Br)ccc2C1=O)Nc1ncc(F)cn1 (single isomer, unassigned) [Example 300] : IC50 value = 3.43

Quick note, IC50 for O=C(CN1CC2(CC2)c2c(ccc(C3C[C@H]3F)c2F)C1=O)Nc1ncc(F)cn1 (single isomer, unassigned) [Example 304] landed at 2.56

// IC50 value for O=C(CN1C[C@@]2(C[C@@H]2F)c2cc(C(F)(F)F)ccc2C1=O)Nc1ncc(F)cn1 (single isomer, unassigned) [Example 234] : 0.078

Form field IC50, entry O=C(CN1CC(CF)c2cc(Br)ccc2C1=O)Nc1ncc(F)cn1 (single isomer, unassigned) [Example 292] : 3.94

So, O=C(CN1CC(C(F)(F)F)c2cc(Br)ccc2C1=O)Nc1ncc(F)cn1 (single isomer, unassigned) [Example 299] ? Its IC50 was 0.096

Record summary for O=C(CN1CC2(CC2)c2cc([C@@]3(F)C[C@H]3F)ccc2C1=O)Nc1ncc(F)cn1 (single isomer, unassigned) [Example 254] : reported IC50 = 0.434

Quick note, IC50 for O=C(CN1C[C@@]2(C[C@@H]2F)c2cc(C(F)(F)F)ccc2C1=O)Nc1ncc(C(F)(F)F)cn1 (single isomer, unassigned) [Example 242] landed at 1.29

get_value(item= O=C(CN1CC(C(F)(F)F)c2c(ccc(Br)c2F)C1=O)Nc1ncc(F)cn1 (single isomer, unassigned) [Example 298] , readout=IC50) returns 0.367

Query N#C[C@H]1C[C@@]12CN(CC(=O)Nc1ncc(F)cn1)C(=O)c1ccc(Br)cc12 (single isomer, unassigned) [Example 287] yields IC50 of 0.251
